# measurementTarget: Prostacyclin synthase (Homo sapiens)
# Sequence (Q16647 whole entry): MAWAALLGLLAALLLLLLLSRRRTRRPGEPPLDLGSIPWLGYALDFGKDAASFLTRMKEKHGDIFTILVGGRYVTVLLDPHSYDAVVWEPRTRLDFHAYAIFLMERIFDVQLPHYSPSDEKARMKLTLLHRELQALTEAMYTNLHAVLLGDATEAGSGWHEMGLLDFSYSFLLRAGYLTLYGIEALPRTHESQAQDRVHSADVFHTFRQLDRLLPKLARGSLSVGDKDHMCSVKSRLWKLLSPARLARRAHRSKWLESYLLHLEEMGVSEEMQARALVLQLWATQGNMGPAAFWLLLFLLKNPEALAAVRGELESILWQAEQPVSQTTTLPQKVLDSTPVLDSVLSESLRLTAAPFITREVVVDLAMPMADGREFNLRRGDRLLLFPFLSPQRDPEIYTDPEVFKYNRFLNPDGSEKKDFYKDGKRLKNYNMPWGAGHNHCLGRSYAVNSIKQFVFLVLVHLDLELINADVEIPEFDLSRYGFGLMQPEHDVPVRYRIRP
# procedureText: Inhibition of human prostacyclin synthase in IL-1-beta-stimulated human RASF cells assessed as PGF1alpha levels after 50 mins by ELISA
reportedEndpoint: IC50

* O=C(Nc1ccc(-c2ccc(Cl)c(Cl)c2)cc1)C1=C(O)c2ccccc2S(=O)(=O)N1 | > 100 µM

====

# measurementTarget: Prostaglandin E synthase (Homo sapiens)
# Sequence (O14684 whole entry): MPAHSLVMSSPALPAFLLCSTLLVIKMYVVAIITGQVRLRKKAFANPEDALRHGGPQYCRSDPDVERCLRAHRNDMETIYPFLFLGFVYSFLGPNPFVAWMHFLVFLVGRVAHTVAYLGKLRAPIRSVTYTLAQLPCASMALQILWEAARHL
# procedureText: Inhibition of human mPGES1 in IL1-beta treated human FF cells assessed as blockade of PGH2 to PGE2 conversion after 50 mins by ELISA
# Assay type: cell-based
Entries and their IC50
reportedEndpoint: IC50 (nM)

- Cc1ccc(-c2ccc(NC(=O)C3=C(O)c4ccccc4S(=O)(=O)N3)cc2)cc1: 2240
- O=C(Nc1cccc(C(=O)c2ccc(Cl)cc2)c1)C1=C(O)c2ccccc2S(=O)(=O)N1: 2160
- Cc1cccc(-c2ccc(NC(=O)C3=C(O)c4ccccc4S(=O)(=O)N3)cc2)c1C: 6590
- O=C(Nc1ccc(-c2ccc(Cl)c(Cl)c2)cc1)C1NS(=O)(=O)c2ccccc2C1O (stereo unspecified): 670
- O=C(Nc1ccc(-c2ccc(Cl)cc2)cc1)C1=C(O)c2ccccc2S(=O)(=O)N1: 1450
- O=C(Nc1ccc(-c2ccc(Cl)c(Cl)c2)nc1)C1=C(O)c2ccccc2S(=O)(=O)N1: 690
- COc1ccc2c(c1)C(O)=C(C(=O)Nc1ccc(-c3ccc(Cl)c(Cl)c3)cc1)NS2(=O)=O: 1290
- O=C(CNS(=O)(=O)c1ccccc1C(=O)O)Nc1ccc(-c2ccc(Cl)c(Cl)c2)cc1: 37600
- O=C(Nc1ccc(C(=O)c2ccc(Cl)cc2)c(Cl)c1)C1=C(O)c2ccccc2S(=O)(=O)N1: 1140
- O=C(Nc1ccc(Nc2ccc(Cl)cc2)cc1)C1=C(O)c2ccccc2S(=O)(=O)N1: 4240
- O=C(Nc1ccc(-c2ccccc2)cc1)C1=C(O)c2ccccc2S(=O)(=O)N1: 6730
- O=C(Nc1ccc(Oc2ccc(Cl)cc2)cc1)C1=C(O)c2ccccc2S(=O)(=O)N1: 6730
- O=C(Nc1ccc(-c2ccc(Cl)c(Cl)c2)cc1)C1=C(O)c2ccccc2S(=O)(=O)N1: 420
- O=C(Nc1ccccc1CCc1ccc(Cl)c(Cl)c1)C1=C(O)c2ccccc2S(=O)(=O)C1: 3400
- O=C(Nc1ccc(-c2ccc(Cl)c(Cl)c2)cc1)C1=C(O)c2cc(O)ccc2S(=O)(=O)N1: 1450
- CN1C(C(=O)Nc2ccc(-c3ccc(Cl)c(Cl)c3)cc2)=C(O)c2ccccc2S1(=O)=O: 2040
- O=C(Nc1ccc(CCc2ccc(Cl)c(Cl)c2)cc1)C1=C(O)c2ccccc2S(=O)(=O)N1: 460
- O=C(Nc1ccc(-c2cccc(Cl)c2)cc1)C1=C(O)c2ccccc2S(=O)(=O)N1: 3440
